Every entry's value here was drawn from paper PMC3501516.

test: Pharmacokinetics / plasma GRA1 concentrations in hGCGR mice; assay type: in vivo; conditions: mouse, oral, 3 mg/kg p.o., 1 h postdose (glucagon challenge)
assay-readout: concentration at 1 h (nM)
Just the number please, in nM, no unit attached.

Q. # get_value(readout='concentration at 1 h', item= COc1ccc2cc(-c3cc(-c4cc(C(F)(F)F)ccc4F)nn3[C@@H](C)c3ccc(C(=O)NCCC(=O)O)cc3)ccc2c1 )
A. 400

###

experiment: Pharmacokinetics / plasma GRA1 concentrations in hGCGR mice; type: in vivo; details: mouse, single oral 3 mg/kg, 3 h postdose (occupancy experiment)
assay-readout: concentration at 3 h (nM)
Just the number please, in nM, no unit attached.

Q. # get_value(readout='concentration at 3 h', item= COc1ccc2cc(-c3cc(-c4cc(C(F)(F)F)ccc4F)nn3[C@@H](C)c3ccc(C(=O)NCCC(=O)O)cc3)ccc2c1 )
A. 600
